# System under test: human A2a receptor (Homo sapiens, UniProt P29274)
# Construct: purchased Perkin-Elmer RBHA2AM400UA; host or cells: HEK293 cells (membranes)
# Sequence (P29274 whole entry): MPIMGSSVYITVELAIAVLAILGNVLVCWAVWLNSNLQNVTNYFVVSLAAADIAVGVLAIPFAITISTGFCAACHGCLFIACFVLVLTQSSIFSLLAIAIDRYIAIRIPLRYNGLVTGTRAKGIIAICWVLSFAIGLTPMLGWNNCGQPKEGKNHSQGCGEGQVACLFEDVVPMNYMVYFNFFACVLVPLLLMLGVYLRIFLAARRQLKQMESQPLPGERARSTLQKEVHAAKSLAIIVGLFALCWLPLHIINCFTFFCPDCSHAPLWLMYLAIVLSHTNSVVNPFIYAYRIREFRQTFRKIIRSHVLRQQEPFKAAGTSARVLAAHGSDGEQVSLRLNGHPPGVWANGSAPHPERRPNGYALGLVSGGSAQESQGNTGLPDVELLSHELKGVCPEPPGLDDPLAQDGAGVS
# Measurement description: Competition binding assay using Scintillation Proximity technology (A2a activity)
# Experimental parameters: membranes from HEK293 cells expressing the human A2a receptor; 0.5 nM tritiated ligand; Cheng-Prusoff
Property: Ki (nM)
Just the number please, in nM, no unit attached.

1) COc1cccc2c1nc(N)n1nc(Cc3ccc(N(C)C)cc3)cc21 : 61
2) COc1cccc2c1nc(N)n1nc(Cc3cccc4c3CNC4=O)cc21 : 49

Let's switch to this compound now.
Name the recorded Ki for COc1cccc2c1nc(N)n1nc(Cc3ccnc4ccccc34)cc21 .
2

* * *

Recorded log10 Ki, one value per entry.
# System under test: human A2a receptor (Homo sapiens, UniProt P29274)
# Construct: purchased Perkin-Elmer RBHA2AM400UA; host or cells: HEK293 cells (membranes)
# Measurement description: Competition binding assay using Scintillation Proximity technology (A2a activity)
# Experimental parameters: membranes from HEK293 cells expressing the human A2a receptor; 0.5 nM tritiated ligand; Cheng-Prusoff
log10 Ki, nM

Worked set:
1) Nc1nc2c(F)cccc2c2cc(Cc3cccc4cccnc34)nn12 : 0.78
2) COc1cccc2c1nc(N)n1nc(Cc3cccc4ncccc34)cc21 : 1.93
3) CCN1CCN(c2ccccc2Cc2cc3c4cccc(OC)c4nc(N)n3n2)CC1 : 2.08
4) COc1cccc2c1nc(N)n1nc(Cc3cccc4ccccc34)cc21 : 1.20
5) COc1cccc2c1nc(N)n1nc(Cc3cccc4cnccc34)cc21 : 1.26
6) COc1cccc2c1nc(N)n1nc(Cc3ccccc3N3CCNCC3)cc21 : 1.83

Let's switch to this molecule now.
Query the reported log10 Ki for human A2a receptor (Homo sapiens, UniProt P29274); item: COc1cccc2c1nc(N)n1nc(Cc3cccc(Cl)c3)cc21
1.54

* * *

# System under test: human A2a receptor (Homo sapiens, UniProt P29274)
# Construct: purchased Perkin-Elmer RBHA2AM400UA; host or cells: HEK293 cells (membranes)
# Measurement description: Competition binding assay using Scintillation Proximity technology (A2a activity)
# Experimental parameters: membranes from HEK293 cells expressing the human A2a receptor; 0.5 nM tritiated ligand; Cheng-Prusoff
Property: Ki (nM)
Just the number please, in nM, no unit attached.

Worked set:
1) COc1ccccc1Cc1cc2c3cccc(OC)c3nc(N)n2n1 : 1
2) Nc1nc2c(F)cccc2c2cc(C(=O)N3CCN(c4ccc(F)cc4F)CC3)nn12 : 94
3) COCc1cccc(Cc2cc3c4cccc(OC)c4nc(N)n3n2)c1 : 40

Let's switch to this compound now.
Name the recorded Ki for COc1cccc2c1nc(N)n1nc(Cc3ccccc3-n3cccn3)cc21 .
7

* * *

# System under test: human A2a receptor (Homo sapiens)
# Construct: purchased Perkin-Elmer RBHA2AM400UA; host or cells: HEK293 cells (membranes)
# Measurement description: Competition binding assay using Scintillation Proximity technology (A2a activity)
# Experimental parameters: membranes from HEK293 cells expressing the human A2a receptor; 0.5 nM tritiated ligand; Cheng-Prusoff
Property: Ki
Please answer using the number first and the unit second.

Worked set:
1. COc1cccc2c1nc(N)n1nc(Cc3ccccc3OCc3ccccc3)cc21 : 128 nM
2. COc1cccc2c1nc(N)n1nc(Cc3cccc(C(F)(F)F)c3)cc21 : 12 nM
3. Nc1nc2c(F)cccc2c2cc(C(=O)N3CCN(c4ccccn4)CC3)nn12 : 32 nM
4. Nc1nc2ccc(F)cc2c2cc(C(=O)N3CCN(c4ccc(F)cc4F)CC3)nn12 : 8 nM
5. Nc1nc2c(F)cccc2c2cc(Cc3ccccc3)nn12 : 14 nM

Let's switch to this molecule now.
Name the recorded Ki for COc1cccc2c1nc(N)n1nc(-c3nnc(NCc4ccc(F)cc4F)o3)cc21 .
23 nM
